Tested on: Pseudomonas aeruginosa
Test: MIC, sole activity (no second agent)
Assay type: cell-based
Settings: in the absence of Rifampicin; strain CCUG 59626
Procedure: To evaluate the potency and spectrum of the compounds both alone and in combination with another agent, susceptibility testing was performed against up to four strains of each of the four Gram negative pathogens, Escherichia coli, Pseudomonas aeruginosa, Klebsiella pneumoniae and Acinetobacter baumannii. […] MICs were determined as described herein, except that a different supplier of Cation-adjusted MHB was used. […]
Numbered stars: 1 amine (or outer) side, 2 acyl side, 3 side chain; on linkers, the order of the positions; unused ones are H or OH. Bridge positions count the residues as written; N and C are the ends. Square brackets hold non-standard residues; d marks the D form. Peptide text beside a SMILES is read from it. * marks the point of attachment. ξ: configuration not given here. ξβ3hPhg = O=C(CC(N[*:1])c1ccccc1)[*:2]; ξβ3hGly(cHex) = NC(CC(=O)*)C1CCCCC1; Thr(3ξ) = CC(O)[C@H](N)C(=O)O; Dab = NCC[C@H](N)C(=O)O; X1 = CCCCCCC(O)C(=O)*
Metric name: MIC P. aeruginosa CCUG 59626 (micrograms/mL)
Numbers only; they are read as micrograms/mL.

{"columns": ["Compound", "Measure unit", "Number"],
 "data": [
  ["CC(C)C[C@@H]1NC(=O)[C@@H](Cc2ccccc2)NC(=O)[C@H](CCN)NC(=O)[C@@H](NC(=O)[C@H](CCN)NC(=O)[C@@H](NC(=O)CC(N)C2CCCCC2)C(C)O)CCNC(=O)[C@H](C(C)O)NC(=O)[C@H](CCN)NC(=O)[C@H](CCN)NC1=O (stereo partly drawn) [Example 10] ({ξβ3hGly(cHex)}-[Thr(3ξ)][Dab][Dab][Dab][dF]L[Dab][Dab][Thr(3ξ)]; lactam 3-C)", "micrograms/mL", 0.25],
  ["CC(C)C[C@@H]1NC(=O)[C@@H](Cc2ccccc2)NC(=O)[C@H](CCN)NC(=O)[C@@H](NC(=O)[C@H](CCN)NC(=O)[C@@H](NC(=O)CC(N)c2ccccc2)C(C)O)CCNC(=O)[C@H](C(C)O)NC(=O)[C@H](CCN)NC(=O)[C@H](CCN)NC1=O (stereo partly drawn) [Example 28] (ξβ3hPhg-[Thr(3ξ)][Dab][Dab][Dab][dF]L[Dab][Dab][Thr(3ξ)]; lactam 3-C)", "micrograms/mL", 0.5]
]}

# ---- query compound ----
Asked: Requested read-out: MIC P. aeruginosa CCUG 59626. Entry: CCCCCCC(O)C(=O)N[C@H](C(=O)N[C@@H](CCN)C(=O)N[C@H]1CCNC(=O)[C@H]([C@@H](C)O)NC(=O)[C@H](CCN)NC(=O)[C@H](CCN)NC(=O)[C@H](CC(C)C)NC(=O)[C@@H](Cc2ccccc2)NC(=O)[C@H](CCN)NC1=O)[C@@H](C)O (stereo partly drawn) [Example 1] (X1-T[Dab][Dab][Dab][dF]L[Dab][Dab]T; lactam 3-C)
Given back: 2

----------
test system: HK-2 cell line; experiment: In vitro renal cell toxicity assay (resazurin reduction); type: cell-based, human
Where a name gives a salt, the structure may show the parent alone. Bridge positions count the residues as written; N and C are the ends. Square brackets hold non-standard residues; d marks the D form. Peptide text beside a SMILES is read from it. * marks the point of attachment. ξ: configuration not given here. ξHexahydromandeloyl = O=C(C(O)C1CCCCC1)*; X12 = CC(C)C[C@H](N)[C@H](O)C(=O)*; Thr(3ξ) = CC(O)[C@H](N)C(=O)O; Dab = NCC[C@H](N)C(=O)O; X3 = O=C([C@H]1CCCNC1)*; Dap = NC[C@H](N)C(=O)O
# maps each entry to its HK-2 IC50 rel to PMB
Just the number, please, no unit after it.

The cases that follow already have their HK-2 IC50 rel to PMB on record.
{"columns": ["Compound", "Number"],
 "data": [
  ["CC(C)C[C@@H]1NC(=O)[C@@H](Cc2ccccc2)NC(=O)[C@H](CCN)NC(=O)[C@@H](NC(=O)[C@H](CCN)NC(=O)[C@@H](NC(=O)[C@H](CCN)NC(=O)C(O)C2CCCCC2)C(C)O)CCNC(=O)[C@H](C(C)O)NC(=O)[C@H](CCN)NC(=O)[C@H](CCN)NC1=O (stereo partly drawn) [Example A3] (ξHexahydromandeloyl-[Dab][Thr(3ξ)][Dab][Dab][Dab][dF]L[Dab][Dab][Thr(3ξ)]; lactam 4-C)", 4],
  ["CC(C)C[C@@H]1NC(=O)[C@@H](Cc2ccccc2)NC(=O)[C@H](CCN)NC(=O)[C@@H](NC(=O)[C@H](CN)NC(=O)[C@@H](NC(=O)[C@H](CCN)NC(=O)[C@@H](O)[C@@H](N)CC(C)C)C(C)O)CCNC(=O)[C@H](C(C)O)NC(=O)[C@H](CCN)NC(=O)[C@H](CCN)NC1=O (stereo partly drawn) [Example A17] (X12-[Dab][Thr(3ξ)][Dap][Dab][Dab][dF]L[Dab][Dab][Thr(3ξ)]; lactam 4-C)", 5.5]
]}

Asked: Requested read-out: HK-2 IC50 rel to PMB. Entry: CC(C)C[C@@H]1NC(=O)[C@@H](Cc2ccccc2)NC(=O)[C@H](CCN)NC(=O)[C@@H](NC(=O)[C@H](CCN)NC(=O)[C@@H](NC(=O)[C@H]2CCCNC2)[C@@H](C)O)CCNC(=O)[C@H]([C@@H](C)O)NC(=O)[C@H](CCN)NC(=O)[C@H](CCN)NC1=O [Example 37, trifluoroacetate salt] (X3-T[Dab][Dab][Dab][dF]L[Dab][Dab]T; lactam 3-C)
Given back: 21

----------
# maps each entry to its MIC P. aeruginosa CCUG 59626
Tested on: Pseudomonas aeruginosa
Assay: MIC, compound in combination with a second agent (broth microdilution)
Format: cell-based
Settings: 1:1 (wt:wt) combination with Rifampicin; MIC = total drug concentration; strain CCUG 59626
Description: To evaluate the potency and spectrum of the compounds both alone and in combination with another agent, susceptibility testing was performed against up to four strains of each of the four Gram negative pathogens, Escherichia coli, Pseudomonas aeruginosa, Klebsiella pneumoniae and Acinetobacter baumannii. Ratios of components in a combination, such as 1:1, refers to a weight to weight ratio. […]
Structures can show the parent of a compound that is named as a salt. Numbered stars: 1 amine (or outer) side, 2 acyl side, 3 side chain; on linkers, the order of the positions; unused ones are H or OH. Bridge positions count the residues as written; N and C are the ends. Square brackets hold non-standard residues; d marks the D form. Peptide text beside a SMILES is read from it. * marks the point of attachment. ξ: configuration not given here. Acetyl(cis-4-NH-cyclohexyl) = O=C(C[C@H]1CC[C@@H](N[*:1])CC1)[*:2]; X25 = CC(O)[C@@H](C(=O)[*:2])N(CCC1(N)CCCCC1)[*:1]; ξHexahydromandeloyl = O=C(C(O)C1CCCCC1)*; X12 = CC(C)C[C@H](N)[C@H](O)C(=O)*; NMeGABA = CN(CCCC(=O)[*:2])[*:1]; Thr(3ξ) = CC(O)[C@H](N)C(=O)O; Chg = N[C@H](C(=O)O)C1CCCCC1; Octanoyl = CCCCCCCC(=O)*; Dab = NCC[C@H](N)C(=O)O; X16 = CN(C)CCCC(=O)*; Glycolyl = O=C(CO)*; X4 = NC1CCCC1C(=O)*
Numbers only; they are read as micrograms/mL.

{"columns": ["Compound", "Number"],
 "data": [
  ["CCCCCCCC(=O)N[C@H](C(=O)N[C@H](CO)C(=O)N[C@H]1CCNC(=O)[C@H](C(C)O)NC(=O)[C@H](CCN)NC(=O)[C@H](CCN)NC(=O)[C@H](CC(C)C)NC(=O)[C@@H](Cc2ccccc2)NC(=O)[C@H](CCN)NC1=O)C(C)O (stereo partly drawn) [Example C1, NAB-739 TFA salt, reference compound] (Octanoyl-[Thr(3ξ)][dS][Dab][Dab][dF]L[Dab][Dab][Thr(3ξ)]; lactam 3-C)", 2],
  ["CC(C)C[C@@H]1NC(=O)[C@@H](Cc2ccccc2)NC(=O)[C@H](CCN)NC(=O)[C@@H](NC(=O)[C@H](CCN)NC(=O)[C@@H](NC(=O)[C@@H](O)[C@@H](N)CC(C)C)C(C)O)CCNC(=O)[C@H](C(C)O)NC(=O)[C@H](CCN)NC(=O)[C@H](CCN)NC1=O (stereo partly drawn) [Example 41, trifluoroacetate salt] (X12-[Thr(3ξ)][Dab][Dab][Dab][dF]L[Dab][Dab][Thr(3ξ)]; lactam 3-C)", 0.125],
  ["CC(C)C[C@@H]1NC(=O)[C@@H](Cc2ccccc2)NC(=O)[C@H](CCN)NC(=O)[C@@H](NC(=O)[C@H](CCN)NC(=O)[C@@H](NC(=O)CCCN(C)C)C(C)O)CCNC(=O)[C@H](C(C)O)NC(=O)[C@H](CCN)NC(=O)[C@H](CCN)NC1=O (stereo partly drawn) [Example 11] (X16-[Thr(3ξ)][Dab][Dab][Dab][dF]L[Dab][Dab][Thr(3ξ)]; lactam 3-C)", 0.25],
  ["CC(C)C[C@@H]1NC(=O)[C@@H](Cc2ccccc2)NC(=O)[C@H](CCN)NC(=O)[C@@H](NC(=O)[C@@H](CO)NC(=O)[C@@H](NC(=O)C2CCCC2N)C(C)O)CCNC(=O)[C@H](C(C)O)NC(=O)[C@H](CCN)NC(=O)[C@H](CCN)NC1=O (stereo partly drawn) [Example 44, TFA salt] (X4-[Thr(3ξ)][dS][Dab][Dab][dF]L[Dab][Dab][Thr(3ξ)]; lactam 3-C)", 0.5],
  ["CNCCCC(=O)N[C@H](C(=O)N[C@@H](CCN)C(=O)N[C@H]1CCNC(=O)[C@H](C(C)O)NC(=O)[C@H](CCN)NC(=O)[C@H](CCN)NC(=O)[C@H](CC(C)C)NC(=O)[C@@H](Cc2ccccc2)NC(=O)[C@H](CCN)NC1=O)C(C)O (stereo partly drawn) [Example 16] (NMeGABA-[Thr(3ξ)][Dab][Dab][Dab][dF]L[Dab][Dab][Thr(3ξ)]; lactam 3-C)", 0.125],
  ["CC(C)C[C@@H]1NC(=O)[C@@H](Cc2ccccc2)NC(=O)[C@H](CCN)NC(=O)[C@@H](NC(=O)[C@H](CCN)NC(=O)[C@@H](NC(=O)CO)C(C)O)CCNC(=O)[C@H](C(C)O)NC(=O)[C@H](CCN)NC(=O)[C@H](CCN)NC1=O (stereo partly drawn) [Example 8, Hydroxyacetyl polymyxin B nonapeptide] (Glycolyl-[Thr(3ξ)][Dab][Dab][Dab][dF]L[Dab][Dab][Thr(3ξ)]; lactam 3-C)", 0.25]
]}

Asked: Requested read-out: MIC P. aeruginosa CCUG 59626. Entry: CC(C)C[C@@H]1NC(=O)[C@@H](Cc2ccccc2)NC(=O)[C@H](CCN)NC(=O)[C@@H](NC(=O)[C@H](CCN)NC(=O)[C@@H](NC(=O)[C@@H](N)C2CCCCC2)C(C)O)CCNC(=O)[C@H](C(C)O)NC(=O)[C@H](CCN)NC(=O)[C@H](CCN)NC1=O (stereo partly drawn) [Example 40, trifluoroacetate salt] (H-[Chg][Thr(3ξ)][Dab][Dab][Dab][dF]L[Dab][Dab][Thr(3ξ)]; lactam 4-C)
Given back: 0.5

Asked: Requested read-out: MIC P. aeruginosa CCUG 59626. Entry: CC(C)C[C@@H]1NC(=O)[C@@H](Cc2ccccc2)NC(=O)[C@H](CCN)NC(=O)[C@@H](NC(=O)[C@H](CCN)NC(=O)[C@@H](NCCC2(N)CCCCC2)C(C)O)CCNC(=O)[C@H](C(C)O)NC(=O)[C@H](CCN)NC(=O)[C@H](CCN)NC1=O (stereo partly drawn) [Example 49] (H-[X25][Dab][Dab][Dab][dF]L[Dab][Dab][Thr(3ξ)]; lactam 3-C)
Given back: 0.25

Asked: Requested read-out: MIC P. aeruginosa CCUG 59626. Entry: CC(C)C[C@@H]1NC(=O)[C@@H](Cc2ccccc2)NC(=O)[C@H](CCN)NC(=O)[C@@H](NC(=O)[C@@H](CO)NC(=O)[C@@H](NC(=O)C(O)C2CCCCC2)C(C)O)CCNC(=O)[C@H](C(C)O)NC(=O)[C@H](CCN)NC(=O)[C@H](CCN)NC1=O (stereo partly drawn) [Example 46, TFA salt] (ξHexahydromandeloyl-[Thr(3ξ)][dS][Dab][Dab][dF]L[Dab][Dab][Thr(3ξ)]; lactam 3-C)
Given back: 1

Asked: Requested read-out: MIC P. aeruginosa CCUG 59626. Entry: CC(C)C[C@@H]1NC(=O)[C@@H](Cc2ccccc2)NC(=O)[C@H](CCN)NC(=O)[C@@H](NC(=O)[C@H](CCN)NC(=O)[C@@H](NC(=O)[C@H](CCN)NC(=O)CC(N)C2CCCCC2)C(C)O)CCNC(=O)[C@H](C(C)O)NC(=O)[C@H](CCN)NC(=O)[C@H](CCN)NC1=O (mixture of isomers) [Example 39, trifluoroacetate salt]
Given back: 0.125

Asked: Requested read-out: MIC P. aeruginosa CCUG 59626. Entry: CC(C)C[C@@H]1NC(=O)[C@@H](Cc2ccccc2)NC(=O)[C@H](CCN)NC(=O)[C@@H](NC(=O)[C@H](CCN)NC(=O)[C@@H](NC(=O)C[C@H]2CC[C@@H](N)CC2)C(C)O)CCNC(=O)[C@H](C(C)O)NC(=O)[C@H](CCN)NC(=O)[C@H](CCN)NC1=O (stereo partly drawn) [Example 36, trifluoroacetate salt] ({Acetyl(cis-4-NH-cyclohexyl)}-[Thr(3ξ)][Dab][Dab][Dab][dF]L[Dab][Dab][Thr(3ξ)]; lactam 3-C)
Given back: 0.25
